Reported inhibition of growth at 20 ppm values for a set of molecules
test system: Monographella nivalis syn. Microdochium nivale, Fusarium nivale; assay: Monographella nivalis syn. Microdochium nivale (snow mould, foot rot), liquid culture growth inhibition; format: cell-based; details: PDB nutrient broth, 24° C., 72 hrs, 620 nm, vs untreated control
recorded_metric: inhibition of growth at 20 ppm

Cc1cccc(Oc2cnc(C)cc2C(=O)NCC(F)c2ccc(Cl)cc2Cl)c1 (centres unmarked) [Compound 1.1]	≥ 80%
Cc1cncc(Oc2cccc(C3CC3)c2)c1C(=O)NC[C@H](F)c1ccc(Cl)cc1Cl [Compound 1.94]	≥ 80%
C#CC(C)(C)Oc1cncc(Oc2cccc(C3CC3)c2)c1C(=O)NCC(F)c1ccc(Cl)cc1Cl (centres unmarked) [Compound 1.92]	≥ 80%
Cc1ccc(C(F)CNC(=O)c2cc(C)ncc2Oc2cccc(C3CC3)c2)c(C)c1 (centres unmarked) [Compound 1.39]	≥ 80%
Cc1cc(C(=O)NC[C@@H](F)c2ccc(Cl)cc2Cl)c(Oc2cccc(C3CC3)c2)cn1 [Compound 1.41]	≥ 80%
C#Cc1cc(C(=O)NCC(F)c2ccc(Cl)cc2Cl)c(Oc2cccc(C3CC3)c2)cn1 (centres unmarked) [Compound 1.86]	≥ 80%
Cc1ccccc1CCNC(=O)c1cc(Cl)ncc1Oc1cccc(C2CC2)c1 [Compound 1.36]	≥ 80%
N#Cc1ccc(Oc2cnc(Cl)cc2C(=O)NCC(F)c2ccc(Cl)cc2Cl)cc1 (centres unmarked) [Compound 1.63]	≥ 80%

###

system: Glomerella lagenarium syn Colletotrichum lagenarium; assay: Glomerella lagenarium syn. Colletotrichum lagenarium (anthracnose), liquid culture growth inhibition; type: cell-based; conditions: Colletotrichum orbiculare, PDB nutrient broth, 24° C., 72 hrs, 620 nm, vs untreated control
Measured inhibition of growth at 20 ppm accompanies every entry in the list below.
recorded_metric: inhibition of growth at 20 ppm

COc1cc(C(=O)NCC(F)c2ccc(Cl)cc2Cl)c(Oc2cccc(C3CC3)c2)cn1 (stereo not shown)	≥ 80%
C=C(C)COc1cncc(Oc2cccc(C3CC3)c2)c1C(=O)NCC(F)c1ccc(Cl)cc1Cl (stereo not shown)	≥ 80%
O=C(NCC(F)c1ccc(Cl)cc1Cl)c1ccncc1Oc1cccc(C2CC2)c1 (stereo not shown)	≥ 80%
C#CC(C)(C)Oc1cncc(Oc2cccc(C3CC3)c2)c1C(=O)NCC(F)c1ccc(Cl)cc1Cl (stereo not shown)	≥ 80%
O=C(NCCc1ccccc1)c1cc(Cl)ncc1Oc1cccc(C2CC2)c1	≥ 80%
O=C(NC[C@H](F)c1ccc(Cl)cc1Cl)c1c(Br)cncc1Oc1cccc(C2CC2)c1	≥ 80%
Cc1cncc(Oc2cccc(C3CC3)c2)c1C(=O)NC[C@@H](F)c1ccc(Cl)cc1Cl	≥ 80%
C#Cc1cncc(Oc2cccc(C3CC3)c2)c1C(=O)NCC(F)c1ccc(Cl)cc1Cl (stereo not shown)	≥ 80%
COc1cccc(Oc2cnc(Cl)cc2C(=O)NCC(F)c2ccc(Cl)cc2Cl)c1 (stereo not shown)	≥ 80%
O=C(NCC(F)c1ccc(Cl)cc1Cl)c1cc(Br)ncc1Oc1cccc(C2CC2)c1 (stereo not shown)	≥ 80%
O=C(NCC(F)c1ccc(Cl)cc1Cl)c1c(F)cncc1Oc1cccc(C2CC2)c1 (stereo not shown)	≥ 80%
O=C(NCCc1ccc(Cl)cc1)c1cc(Cl)ncc1Oc1cccc(C2CC2)c1	≥ 80%
Cc1ccc(CCNC(=O)c2cc(Cl)ncc2Oc2cccc(C3CC3)c2)c(C)c1	≥ 80%
CCc1cncc(Oc2cccc(C3CC3)c2)c1C(=O)NCC(F)c1ccc(Cl)cc1Cl (stereo not shown)	≥ 80%
C#CC(C)(C)Oc1cncc(Oc2cccc(C3CC3)c2)c1C(=O)NCCc1ccc(Cl)cc1Cl	≥ 80%
C#Cc1ccc(C(F)CNC(=O)c2cc(Cl)ncc2Oc2cccc(C3CC3)c2)c(F)c1 (stereo not shown)	≥ 80%
